# Subject of test: plasmin (Homo sapiens, UniProt P00747)
# Construct: fibrinogen substrate
# Sequence (P00779 27-440): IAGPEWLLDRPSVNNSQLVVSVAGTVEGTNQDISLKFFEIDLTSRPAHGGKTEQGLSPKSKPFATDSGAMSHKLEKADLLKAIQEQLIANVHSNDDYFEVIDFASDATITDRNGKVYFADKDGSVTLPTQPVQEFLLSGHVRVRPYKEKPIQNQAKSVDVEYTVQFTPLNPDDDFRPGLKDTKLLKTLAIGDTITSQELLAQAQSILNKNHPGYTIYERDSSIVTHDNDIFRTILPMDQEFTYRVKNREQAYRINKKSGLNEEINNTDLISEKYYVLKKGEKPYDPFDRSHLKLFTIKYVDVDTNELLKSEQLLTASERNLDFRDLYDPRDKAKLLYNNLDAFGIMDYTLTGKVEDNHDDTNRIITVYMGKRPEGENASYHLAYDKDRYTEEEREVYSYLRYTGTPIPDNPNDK
# Sequence (P00747 97-810): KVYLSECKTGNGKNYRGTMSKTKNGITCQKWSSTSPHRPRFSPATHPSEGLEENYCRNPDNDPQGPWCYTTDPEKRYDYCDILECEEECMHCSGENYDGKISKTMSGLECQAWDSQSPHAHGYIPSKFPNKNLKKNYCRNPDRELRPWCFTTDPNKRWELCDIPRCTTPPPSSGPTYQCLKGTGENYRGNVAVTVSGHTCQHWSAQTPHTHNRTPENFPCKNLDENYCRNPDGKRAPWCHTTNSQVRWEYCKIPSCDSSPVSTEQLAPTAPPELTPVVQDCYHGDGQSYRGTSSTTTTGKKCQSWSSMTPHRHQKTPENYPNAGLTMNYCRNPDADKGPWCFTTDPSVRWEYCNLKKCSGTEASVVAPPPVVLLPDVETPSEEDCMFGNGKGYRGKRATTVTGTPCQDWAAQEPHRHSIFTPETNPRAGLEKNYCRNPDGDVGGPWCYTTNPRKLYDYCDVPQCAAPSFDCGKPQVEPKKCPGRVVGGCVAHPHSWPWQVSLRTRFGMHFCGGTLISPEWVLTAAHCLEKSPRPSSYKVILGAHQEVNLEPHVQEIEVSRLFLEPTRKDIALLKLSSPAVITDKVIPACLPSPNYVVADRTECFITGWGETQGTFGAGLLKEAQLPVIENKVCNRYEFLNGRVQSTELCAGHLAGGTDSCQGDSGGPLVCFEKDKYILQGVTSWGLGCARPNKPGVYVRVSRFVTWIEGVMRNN
# Test: Determination of Anti-Plasmin Activity
# Format: biochemical
# Measurement conditions: fibrinogen substrate, plasminogen from human serum + streptokinase, pH 7.2, 37° C., 20 minutes; read-out: IC50 Plasmin (converted)
Where a name gives a salt, the structure may show the parent alone.
Measure: log10 of IC50 (log10 of the value in µM)
Kindly note that the scale is log10 and the underlying IC50 is in µM.

Example cases with answers are listed next.
INSERT INTO measurements (compound, endpoint_result) VALUES
  ('CC(C)C[C@H](NC(=O)c1cccc(Cl)c1)C(=O)N[C@H](C=O)CCCNC(=N)N [Compound No. 9, hydrochloride]', 1.13),
  ('CC(C)C[C@H](NS(=O)(=O)c1ccccc1)C(=O)N[C@H](C=O)CCCNC(=N)N [Compound No. 13, hydrochloride]', 1.38),
  ('CC(C)C[C@H](NS(=O)(=O)c1cccc2c(N(C)C)cccc12)C(=O)N[C@H](C=O)CCCNC(=N)N [Compound No. 21, hydrochloride]', 1.39),
  ('CC(C)C[C@H](NS(=O)(=O)c1cccc2ccccc12)C(=O)N[C@H](C=O)CCCNC(=N)N [Compound No. 20, hydrochloride]', 1.45);

Give log10 of IC50 for CC(C)C[C@H](NC(=O)c1ccccc1)C(=O)N[C@H](C=O)CCCNC(=N)N [Compound No. 8, hydrochloride] tested on plasmin (Homo sapiens, UniProt P00747). 1.65

Param request: log10 of IC50 | system plasmin (Homo sapiens, UniProt P00747) | item CC(C)C[C@H](NC(=O)[C@@H]1CCC(=O)N1C(=O)OCc1ccccc1)C(=O)N[C@H](C=O)CCCNC(=N)N [Compound No. 30, hydrochloride] -0.02

Jot down log10 of IC50 (plasmin (Homo sapiens, UniProt P00747)) of CC(C)C[C@H](NC(=O)c1ccc([N+](=O)[O-])cc1)C(=O)N[C@H](C=O)CCCNC(=N)N [Compound No. 12, hydrochloride] . 1.49
